system: NCI-H23; assay: NCI tumour cell line growth inhibition, 48 h
Calls of active or inactive are those of the source. Rule as the data show it: active = GI50 up to about 1.1 µM and inactive = higher.
parameter-measured: GI50

INSERT INTO measurements (compound, experimental_result) VALUES
  ('O=C1CCC(=O)C(C(=O)CCC(=O)Nc2cccc(Cl)c2)C1 (centres undefined)', '> 100 µM (inactive)'),
  ('CCN(CC)CCCNc1c2c(Cl)cc(Cl)cc2nc2nc(O)nc(C)c12', '55.8 µM (inactive)'),
  ('COC[n+]1cc2cc(OC)c(OC)cc2c2ccc3cc(OC)c(OC)cc3c21', '> 100 µM (inactive)'),
  ('Oc1cc2c3c(c1)CCCN3CCC2', '> 10 µM (inactive)'),
  ('S=P1(N2CCCCC2)Oc2ccc3ccccc3c2-c2c(ccc3ccccc23)O1', '> 81.1 µM (inactive)'),
  ('Cc1ccc(/C=C2\NC(=S)N(CN3CCOCC3)C2=O)cc1', '> 100 µM (inactive)'),
  ('O=c1c2ccccc2nc(-c2ccc(Br)cc2)n1NC1OC(CO)C(O)C(O)C1O (centres undefined)', '> 100 µM (inactive)'),
  ('O=C(O)CNS(=O)(=O)c1ccc(NC(=O)c2ccc(F)cc2)cc1', '> 100 µM (inactive)'),
  ('O=CCOCc1cc2c(cc1Br)OCO2', '11.8 µM (inactive)'),
  ('C=C1CC(C)(COc2ccc3c(C)c(C)c(=O)oc3c2C)OC1=O (centres undefined)', '1.82 µM (inactive)');

Data request: Item under review: `O=C1N=NC(=O)N1c1cc(C(F)(F)F)cc(C(F)(F)F)c1` . Reported GI50?
Data returned: 2.35 µM (inactive)

Data request: GET /values?readout=GI50&item= `CC(=O)[C@@]1(c2ccccc2)CC2(CCN(C)CC2)O[C@H]1C`
Data returned: > 100 µM (inactive)

Data request: Would you kindly share the measured GI50 for `CCOC(=O)N/N=C(/N)c1cccc(Br)c1` ?
Data returned: > 100 µM (inactive)

Data request: Quick one: GI50 for `C[C@@H](C[C@H]1OC(C)(C)O[C@@H]1C(C)(C)O)[C@H]1CC=C2[C@]3(C)[C@H](O)C[C@H]4C(C)(C)[C@H](O)CC[C@]4(C)[C@H]3CC[C@]21C` ?
Data returned: 9.86 µM (inactive)

Data request: // query GI50 value for entry COC(=O)C(C)Oc1ccc(O)cc1 (centres undefined)
Data returned: > 100 µM (inactive)

Data request: // lookup GI50 for `C=C[C@H]1CN2CCc3c([nH]c4c([C@@H]5CCCN5C)c(O)ccc34)[C@@H]2C[C@@H]1C[C@H]1c2[nH]c3ccccc3c2CCN1C`
Data returned: 1.82 µM (inactive)

Data request: Need GI50 of `Cc1cc(NS(=O)(=O)c2ccc(Nc3c4ccccc4nc4c(C(=O)N5CCN(CCOS(C)(=O)=O)CC5)cccc34)cc2)no1` , thanks.
Data returned: > 100 µM (inactive)

###

Each entry below carries its reported GI50.
tested on: SK-MEL-2; assay: NCI tumour cell line growth inhibition, 48 h
The source made the active and inactive calls. No stated cut-off is given here; in the data, active = GI50 up to about 1.1 µM and inactive = higher.

Data request: Tell me the measured GI50 of `O=C(CCc1cc(-c2ccccc2)nc(S)n1)N(Cc1ccccc1)Cc1ccccc1` , please.
Data returned: > 100 µM (inactive)

Data request: // lookup GI50 for `CC(C)C(=O)/C=C/c1ccc(Br)cc1`
Data returned: 16.1 µM (inactive)

Data request: Quick one: GI50 of `COc1ccc(C(=O)/C=C/c2cccnc2)cc1OC` ?
Data returned: 13.2 µM (inactive)

Data request: Given the entry `CC(C)(C)c1ccc(C(O)c2ccc(C(C)(C)C)cc2)cc1` , report its measured GI50.
Data returned: 15.2 µM (inactive)

Data request: Quick check: GI50 of `COc1ccc2[nH]cc(C(=O)C(=O)NC34CC5CC(CC(C5)C3)C4)c2c1` ?
Data returned: 57.8 µM (inactive)

Data request: GET /values?readout=GI50&item= C[C@H](CCC1SC1(C)C)C1CCC2(C)C3=C(CC[C@]12C)[C@@]1(C)CC[C@H](O)C(C)(C)C1CC3 (stereo partly specified)
Data returned: > 100 µM (inactive)

###

test system: HT-29; test: NCI tumour cell line growth inhibition, 48 h
Calls of active or inactive are those of the source. No stated cut-off is given here; in the data, active = GI50 up to about 1.1 µM and inactive = higher. Where a SMILES comes first, the peptide text is derived from it. Non-standard residues stand in square brackets, D forms with d. Residues, ends and D or L forms follow the SMILES beside them. The star is where a group is joined. *: point of attachment. Cbz = O=C(OCc1ccccc1)*; Boc = CC(C)(C)OC(=O)*; Aib = CC(C)(N)C(=O)O; OBn = c1ccc(CO*)cc1; OtBu = CC(C)(C)O*; βAla = NCCC(=O)O
parameter-measured: GI50

INSERT INTO measurements (compound, experimental_result) VALUES
  ('N#C/C(=C\c1ccc(O)c(O)c1)C(=O)NC1CCC(CC2CCC(NC(=O)/C(C#N)=C/c3ccc(O)c(O)c3)CC2)CC1 (centres undefined)', '1.32 µM (inactive)'),
  ('CCOC(=O)C(CC(=O)OC)NC(=O)C(CC(=O)OC)NC(=O)C(CC(=O)OC)NC(=O)C(CC(=O)OC)NC(=O)OCc1ccccc1 (centres undefined) (Cbz-D(OMe)D(OMe)D(OMe)D(OMe)-OEt; configuration not given here)', '> 100 µM (inactive)'),
  ('CSc1nc2nc(C)c(C)nc2c(=O)[nH]1', '> 100 µM (inactive)'),
  ('CC1(c2nc3ccccc3[nH]2)CCC(C#N)C(C)(C)O1 (centres undefined)', '> 100 µM (inactive)');

Data request: Would you kindly share the measured GI50 for `O=[N+]([O-])c1cccc2c(/N=N/c3ccc4ccccc4c3O)c(O)cc(S(=O)(=O)O)c12` ?
Data returned: 34.1 µM (inactive)

Data request: Endpoint output: GI50 of CC(C)(C)OC(=O)CC(NC(=O)OC(C)(C)C)C(=O)NC(CCCCNC(=O)OCc1ccccc1)C(=O)NC(C)(C)C(=O)NCCC(=O)OCc1ccccc1 (centres undefined) (Boc-D(OtBu)K(Cbz)[Aib][βAla]-OBn; configuration not given here) . Value?
Data returned: > 100 µM (inactive)

Data request: For the compound shown here, `Cc1ccc(/C=C2\NC(=S)N(CN3CCOCC3)C2=O)cc1` , give the reported GI50.
Data returned: > 100 µM (inactive)

Data request: Field request: GI50 | item: `Cc1nc2ccc(S(=O)(=O)Nc3nccs3)cc2c(=O)n1NS(=O)(=O)c1nccs1`
Data returned: 41.5 µM (inactive)

Data request: Give the measured GI50 of COc1ccc(C2C3C(=O)C=CC(=O)C3[C@@H]2C)cc1OC (some centres undefined) .
Data returned: > 100 µM (inactive)

###

test system: RPMI-8226; test: NCI tumour cell line growth inhibition, 48 h
Calls of active or inactive are those of the source. No stated cut-off is given here; in the data, active = GI50 up to about 1.1 µM and inactive = higher.
Overview of reported GI50 across a group of compounds:

Example entries begin here.
INSERT INTO assay_data (compound, subject_of_test, experimental_result) VALUES
  ('C=C1Oc2nc3ccccc3c(=O)n2C1(C)C', 'RPMI-8226', '> 100 µM (inactive)'),
  ('CC1(c2nc3ccccc3[nH]2)CCC(C#N)C(C)(C)O1 (centres undefined)', 'RPMI-8226', '> 100 µM (inactive)'),
  ('O=C(O)CCCc1nc2c(n1-c1ccccc1)C(=O)c1ccccc1C2=O', 'RPMI-8226', '40.7 µM (inactive)'),
  ('Nc1ccc(C23CC4CC(C2)CC(c2ccc(N)cc2)(C4)C3)cc1', 'RPMI-8226', '10.7 µM (inactive)'),
  ('Cc1cc(NS(=O)(=O)c2ccc(Nc3c4ccccc4nc4c(C(=O)N5CCN(CCOS(C)(=O)=O)CC5)cccc34)cc2)no1', 'RPMI-8226', '> 100 µM (inactive)');

Data request: Field: GI50 (RPMI-8226). Entry: `CCOC(=O)c1csc(NC(=O)CCN2CCCCC2)n1`
Data returned: > 100 µM (inactive)

Data request: Reported GI50 for RPMI-8226, given CC(C)(C)OC(=O)NC(Cc1ccc(OCc2ccccc2)cc1)C(=O)NC(COCc1ccccc1)C(=O)Oc1c(Cl)c(Cl)c(Cl)c(Cl)c1Cl (centres undefined) ?
Data returned: 37.7 µM (inactive)

Data request: Lab note: need GI50 with RPMI-8226 for entry O=C1NC2(CCCCC2)C2CCCCC(O)C12 (centres undefined) , please look it up.
Data returned: > 100 µM (inactive)

Data request: Lab request: please report GI50 under test system RPMI-8226 for CC[C@]12C=CCN3CCC4(c5cc([C@@]6(C(=O)OC)CC7CN(CCc8c6[nH]c6ccccc86)CC6CCCCC67)c(OC)cc5N(C)C4[C@](O)(C(=O)OC)C1OC(C)=O)[C@@H]32 (some centres undefined)
Data returned: < 0.01 µM (active)
